- test_protocol: Clearance in Sprague-Dawley rat at 1 mg/kg, iv or 10 mg/kg, po
- Type: ADME, organism-based
- conditions: in vivo
recorded_metric: clearance

Query :: # get_value(readout='clearance', item= C=CC(=O)N1CCN(c2nc(=O)n(-c3c(C)ccnc3C(C)C)c3nc(-c4c(O)cccc4F)c(F)cc23)[C@@H](C)C1 )
Result :: 56.7 mL/min/kg

----------
- test_protocol: Solubility of compound in PBS buffer at pH 7.4 incubated for 48 to 72 hrs under shaking conditions by LCMS analysis
- Assay type: physicochemical
Here the recorded solubility thermodynamic is given for each entry.
Number in µM, nothing else.

A selection of reference data follows.
> print(dat)
                                        mol           recorded.metric  measured
1  C=CC(=O)N1CCN(c2nc(=O)n(-c3c(C(C)C)ccnc3C)c3nc(-c4c(O)cccc4F)c(F)cc23)[C@@H](C)C1  solubility thermodynamic       426
2  C=CC(=O)N1CCN(c2nc(=O)n(-c3c(C)ncnc3C(C)C)c3nc(-c4c(O)cccc4F)c(Cl)cc23)[C@@H](C)C1  solubility thermodynamic       499
3  C=CC(=O)N1CCN(c2nc(=O)n(-c3ccccc3C(C)C)c3nc(-c4c(O)cccc4F)c(Cl)cc23)CC1  solubility thermodynamic        14

We next turn to a different compound, shown below.
Query :: # get_value(readout='solubility thermodynamic', item= C=CC(=O)N1CCN(c2nc(=O)n(-c3c(C(C)C)ccnc3C)c3nc(-c4c(O)cccc4F)c(Cl)cc23)[C@@H](C)C1 )
Result :: 335
